test system: OVCAR-3; assay: NCI tumour cell line growth inhibition, 48 h
Active and inactive are the calls of the source. Rule as the data show it: active = GI50 up to about 1.1 µM and inactive = higher.
Each entry below carries its recorded GI50.
experimental_readout: GI50

{"molecule": "Cc1cc(N(CCC#N)CCC#N)ccc1C(=N/NC(=O)c1cc(Cl)ccc1O)/N=N/c1cccc([N+](=O)[O-])c1", "meas_value": "15.9 µM (inactive)"}
{"molecule": "C[N+](C)(N)CCC[N+](C)(C)N", "meas_value": "> 100 µM (inactive)"}
{"molecule": "Clc1ccc(/C=N/c2ccc(Oc3ccc(Cl)cc3)c(Cl)c2)cc1", "meas_value": "16.9 µM (inactive)"}
{"molecule": "O=C(/C=C/c1ccc(O)c(O)c1)OCc1ccccc1 [BENZYL CAFFEATE]", "meas_value": "11 µM (inactive)"}
{"molecule": "O=C(CC(=O)c1cccc2ccccc12)C(=O)NC1C2CC3CC(C2)CC1C3 (stereo not given)", "meas_value": "> 100 µM (inactive)"}
{"molecule": "CC(=O)O[C@H]1C(=O)[C@@]2(C)C(C(OC(=O)c3ccccc3)[C@]3(O)CC(OC(=O)C(O)C(NC(=O)c4ccccc4)c4cccc(Cl)c4)C(C)=C1C3(C)C)[C@]1(OC(C)=O)CO[C@@H]1C[C@@H]2O (stereo not given in full)", "meas_value": "4.18 µM (inactive)"}
{"molecule": "C1CN1c1nc(N2CC2)nc(N2CC2)n1", "meas_value": "16 µM (inactive)"}
{"molecule": "CN(C)C(=S)Nc1nnc(Nc2ccccc2)s1", "meas_value": "> 100 µM (inactive)"}
{"molecule": "CSc1ccc(/C=C2\\N=C(c3ccccc3)N(c3nc4cc(C)c(C)cc4s3)C2=O)cc1", "meas_value": "22.8 µM (inactive)"}
{"molecule": "CC(=O)N(CCc1ccccc1)C(C#N)c1ccc(OCCCCCCCCCCOc2ccc(C(C#N)N(CCc3ccccc3)C(C)=O)cc2)cc1 (stereo not given)", "meas_value": "> 100 µM (inactive)"}
{"molecule": "COC(=O)C1CCOC(C)N1C(=O)OC(C)(C)C (stereo not given)", "meas_value": "> 100 µM (inactive)"}
{"molecule": "Cc1ccc(S(=O)(=O)N(CC(O)COc2ccccc2)c2c(F)c(F)cc(F)c2F)cc1 (stereo not given)", "meas_value": "20.5 µM (inactive)"}
{"molecule": "C=C1C(=O)OC2CC(C)C3CC(O)OC(OCC)C3(C)CC12 (stereo not given)", "meas_value": "15.3 µM (inactive)"}
{"molecule": "O=C(Sc1sc(=S)sc1SC(=O)c1ccccc1)c1ccccc1", "meas_value": "> 100 µM (inactive)"}
{"molecule": "Cc1ccc([S+]([O-])c2cccs2)cc1 (stereo not given)", "meas_value": "> 100 µM (inactive)"}

Ref: ChEMBL document CHEMBL1201862
